Data provenance is ChEMBL document CHEMBL1157496.

- Assay protocol: Ratio of drug level in cerebrospinal fluid to plasma in rat after 9 hrs
- Type: ADME, CSF/Plasma
Recorded metric: Kp at 9 h
Please reply with the number alone, leaving off any unit.

So for CC1(C)C[C@@H](CN2CCC(F)(CNC(=O)c3cc(Cl)cc(Cl)c3)CC2)CCO1 , the logged Kp at 9 h turned out to be 2.8

---

- Assay protocol: AUC (0 to 24 hrs) in monkey at 2 mg/kg, po
- Format: ADME, organism-based, Macaca mulatta
- Set-up: time < 24 hr, dose 2 mg/kg, route oral
- Assay context: rhesus monkey, plasma
Recorded metric: AUC(0-t) at 24 h (µM·h)
Reply numerically in µM·h, unit not repeated.

So for CC1(C)C[C@@H](CN2CCC(F)(CNC(=O)c3cc(Cl)cc(Cl)c3)CC2)CCO1 , the logged AUC(0-t) at 24 h turned out to be 3.2
